Every entry's value here was drawn from PubChem BioAssay.

// aptamer binding inhibition lookup, one value per entry
- TEST_TARGET: Beta-adrenergic receptor kinase 1 (Homo sapiens) (UniProt P25098)
- Sequence (P25098 whole entry, looked up): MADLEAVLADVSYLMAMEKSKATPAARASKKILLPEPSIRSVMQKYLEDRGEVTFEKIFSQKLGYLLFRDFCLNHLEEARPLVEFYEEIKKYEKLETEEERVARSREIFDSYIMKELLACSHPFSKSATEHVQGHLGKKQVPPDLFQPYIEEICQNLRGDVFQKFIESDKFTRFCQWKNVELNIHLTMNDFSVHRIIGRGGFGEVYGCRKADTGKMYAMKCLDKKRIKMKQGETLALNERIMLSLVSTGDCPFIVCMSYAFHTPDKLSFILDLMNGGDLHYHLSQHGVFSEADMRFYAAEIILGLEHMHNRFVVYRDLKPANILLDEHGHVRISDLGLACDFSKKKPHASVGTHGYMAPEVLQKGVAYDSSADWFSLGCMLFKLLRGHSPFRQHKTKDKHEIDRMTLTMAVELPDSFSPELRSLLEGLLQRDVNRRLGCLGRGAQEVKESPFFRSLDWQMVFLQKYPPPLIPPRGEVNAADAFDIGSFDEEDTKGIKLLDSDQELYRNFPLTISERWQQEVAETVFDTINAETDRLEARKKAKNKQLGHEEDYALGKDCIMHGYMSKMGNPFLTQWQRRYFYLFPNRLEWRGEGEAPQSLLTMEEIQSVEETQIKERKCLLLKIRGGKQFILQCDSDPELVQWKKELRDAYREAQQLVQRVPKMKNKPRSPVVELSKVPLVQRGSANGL
- ASSAY_SUMMARY: GRK2 binders displacing RNA aptamer, biochemical, validation, human GRK2, bead flow cytometry (AID 488806)
- CONDITION_CONTEXT: bead-bound GRK2, FAM-aptamer displacement, at 10 µM, stronger effect = higher value
PROPERTY_MEASURED: aptamer binding inhibition (%)

COC(=O)CN1CC(=O)N(c2ccccc2)C1=S: 1
COc1ccc(NC(=O)C2C(=O)N(CCO)C3(C)CC2c2ccccc2O3)cc1 (configuration not stated): 3
CCn1cc(C(=O)O)c(=O)c2cnc(N3CCNCC3)nc21: 0
O=C(O)c1cccnc1: 4
O=C1OC(c2ccc(O)cc2)(c2ccc(O)cc2)c2ccccc21: 1
COc1ccc2cc(CCC(C)=O)ccc2c1: 2
COc1ccc(C2NC(=O)c3ccccc3N2)cc1OC (configuration not stated): 5
COc1cccc(N2CC(O)=C(c3nc4ccccc4c(=O)[nH]3)C2=N)c1: 5
Fc1cccc(Cc2noc(CN3CCN(c4cnccn4)CC3)n2)c1: -1
CS(=O)(=O)Oc1ccc2c(c1)O/C(=C\C=C\c1ccccc1)C2=O: 4
CC(=O)N1CC2(C)CN(C(C)=O)CC(C)(C1)C2: -2
CCCC(=O)Nc1ccc(OCC(O)CNC(C)C)c(C(C)=O)c1 (configuration not stated): -5

----------
- ASSAY_SUMMARY: LAP4-GFP expression modulators in yeast, confirmation, cell-based, cherry picks, flow cytometry, mother/daughter gates (AID 2271);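 also: ratio of sample to DMSO plate mean so 100% equals DMSO level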
- CONDITION_CONTEXT: S. cerevisiae LAP4-GFP strain, 3 h, measured here: mother cell gate response, at 10 µM, stronger effect = higher value, 100 means same as DMSO control
PROPERTY_MEASURED: GFP response relative to DMSO (%)

COc1cccc(C(=O)Nc2ccccc2)c1: 106
Cc1ccn2c(NC(=O)c3ccco3)c(-c3ccccc3)nc2c1: 96.1
O=C(O)c1ccc(SCc2cnc(Cl)s2)cc1: 112
Cc1[nH][nH]c(=O)c1C(c1ccc(-c2ccc(Cl)c(Cl)c2)o1)c1c(C)[nH][nH]c1=O: 169
COc1cccc(C(=O)/C=C/c2ccc(SC)cc2)c1: 103
CN(C)c1ccc(N=Cc2nc(-c3ccccc3)oc2OC(=O)c2cccc(Br)c2)cc1: 93
CCCc1ccc(OCC(=O)NNC(=S)NC(=O)c2ccco2)cc1: 226
CCN(CC)S(=O)(=O)c1ccc(O)c(C(=O)OCC(=O)NC2CCCC2)c1: 97.3
COc1ccc(-c2ccc(SCC(=O)N3c4ccccc4CC3C)nn2)cc1OC (stereo unspecified): 101
C/C(=N/NS(=O)(=O)c1ccccc1)c1ccc(NC(=O)C(F)(F)F)cc1: 94.6
COC(=O)Nc1ccc2c(c1)N(C(=O)CCN1CCN3CCCC3C1)c1ccccc1CC2 (stereo unspecified): 99.3

----------
- ASSAY_SUMMARY: inhibitors of fungal efflux pumps CDR1, CDR2, MDR1, pilot screen, validation compound set, multiplex, phenotypic (AID 588506);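 also: Nile Red retained in cells so higher fluorescence means more efflux inhibition; 0 = negative control wells and 1 = enniatin B 25 µM full block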
- CONDITION_CONTEXT: S. cerevisiae pump-expressing triplex, Nile Red efflux flow cytometry; at 10 µM; stronger effect = higher value; the pumps come from Candida albicans
Listing of recorded efflux inhibition (fraction of control) by entry.
PROPERTY_MEASURED: efflux inhibition (fraction of control)

C[C@]12CC[C@H]3C(=CCc4cc(O)ccc43)[C@@H]1CCC2=O: 0.25
CC(C)CC(=O)N(Cc1ccc(F)cc1)C1CCS(=O)(=O)C1 (stereo unspecified): 0.91
COc1ccccc1C1C(C#N)=C(N)Oc2c1oc(CO)cc2=O (stereo unspecified): 0.03
CC(=O)N=c1sc(S(N)(=O)=O)nn1C: -0.01
CN(C)C(=O)C(CCN1CCC(O)(c2ccc(Cl)cc2)CC1)(c1ccccc1)c1ccccc1: 0.08
CN1C(=O)C(O)(CC(=O)c2ccccc2O)c2cc(Br)ccc21 (stereo unspecified): -0.09
O=C1CC(c2ccc(F)cc2)Cc2nc(NCC3CCCO3)ncc21 (stereo unspecified): -0.12
N=C(N)c1ccc(OCCCCCOc2ccc(C(=N)N)cc2)cc1: 0.285
CCOC(=O)c1c(C)oc2cc(Br)c(OC(C)C(=O)OCC)cc12 (stereo unspecified): -0.31
COc1ccc([C@@H]2Sc3ccccc3N(CCN(C)C)C(=O)[C@@H]2OC(C)=O)cc1: 0.03
COc1ccccc1C(=O)N=C1NC(=O)CC2C(=O)NCCN12 (stereo unspecified): 0.08

----------
- ASSAY_SUMMARY: AGP1-GFP expression modulators, hit retest, confirmation, cell-based, flow cytometry, S. cerevisiae, cherry picks (AID 2273);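 also: median GFP channel fluorescence over the whole cell population gate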
- CONDITION_CONTEXT: S. cerevisiae AGP1-GFP strain, 3 h, at 10 µM
Overview of reported GFP response, % of DMSO across a group of compounds:
PROPERTY_MEASURED: GFP response, % of DMSO (%)

COc1cc(NC(=O)c2ccc(Br)cc2)ccc1NC(=O)c1cc2ccccc2o1: 95.7
Cc1ccc2[nH]c3c(=O)n(CC(=O)N4CCN(C)CC4)ncc3c2c1: 99.3
Cc1nn2c(N3CCN(C(=O)c4ccco4)CC3)cc(C(C)(C)C)nc2c1-c1ccccc1: 97.6
O=C(Nc1cc(Sc2ccccn2)cc([N+](=O)[O-])c1)c1ccc([N+](=O)[O-])cc1: 104
C/C(=N\NC(=O)c1ccc(Cl)c(Cl)c1)c1cccc(NC(=O)C(C)C)c1: 96
Cn1c(=O)c2ccccc2n(Cc2cccc(F)c2)c1=O: 101
Cc1ccc(N2C(=O)CC(Sc3ncn[nH]3)C2=O)cc1C (stereo unspecified): 100
Cc1nn(C)cc1C(C)NC(=O)c1cc(COc2ccc(F)c(F)c2)on1 (stereo unspecified): 93.7
Cc1nnc(N2C(=O)c3cccc4cccc(c34)C2=O)s1: 100
COc1ccccc1N=Nc1ccc(O)c2ncccc12: 115
Cc1ccc(C2CC(c3cccs3)=NN2S(=O)(=O)c2ccc(C)cc2)cc1 (stereo unspecified): 99

----------
- TEST_TARGET: ATP-binding cassette sub-family B member 6 (Homo sapiens)
- ASSAY_SUMMARY: ABCB6 transporter inhibitors, pilot screen, K562-ABCB6 cells, flow cytometry, validation set (AID 588550);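 also: 0% = DMSO wells and 100% = benzethonium chloride 70 µM positive control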
- CONDITION_CONTEXT: K562-ABCB6 porphyrin accumulation, 1 h, at 10 µM, stronger effect = higher value
PROPERTY_MEASURED: inhibition (%)

O=c1[nH]c(=O)n([C@H]2C[C@H](O)[C@@H](CO)O2)cc1F: 11
CC1COc2c(N3CCN(C)CC3)c(F)cc3c(=O)c(C(=O)O)cn1c23 (stereo unspecified): 7
Cn1c2ccccc2c2cc(/C=C(\NC(=O)c3ccccc3)C(=O)O)ccc21: 10
C/C(=N\N=C1\NC(=O)C(CC(=O)Nc2ccc(Cl)cc2)S1)c1ccco1 (stereo unspecified): 8
O=C(NC(CO)Cc1ccc([N+](=O)[O-])cc1)C(Cl)Cl (stereo unspecified): 14
CCOC(=O)NN1C(=O)c2ccccc2NC1c1ccc(OC)c(OC)c1 (stereo unspecified): 14
CCc1cc2c(=O)c(-c3ccc(F)cc3)c(C)oc2cc1OCC(=O)O: -6
O=P(c1ccccc1)(c1ccccc1)c1nc(-c2ccc(Cl)cc2)oc1N1CCOCC1: -3
CC(C)OC(=O)CC1C(=O)NCCN1C(=S)NC(=O)c1ccccc1Cl (stereo unspecified): -197
O=C(O)c1cc(-c2ccccc2)nc2ccccc12: -2
CNC[C@H](O)c1ccc(O)c(O)c1: 9

----------
- ASSAY_SUMMARY: inhibitors of CD8+ T cell-vesicle binding, pilot screen, LFA-1/ICAM-1 modulator project, MLPCN validation set, flow cytometry (AID 2523);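 also: mean PE anti-B7-1 fluorescence of CD8+ cells relative to row control; 100% = QL9-loaded vesicles with DMSO vehicle in the same plate row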
- CONDITION_CONTEXT: 2C mouse CD8+ T cells, at 7 µM, stronger effect = lower value
Recorded vesicle binding response, one value per entry.
PROPERTY_MEASURED: vesicle binding response (%)

CC(C)C1Cc2[nH]c(=O)c(C(=O)O)cc2CO1 (configuration not stated): 1810
CCc1cc(=O)oc2cc(C)c(CN3CCCC(C)C3)c(O)c12 (configuration not stated): 161
COc1ccc(OCC(=O)N2c3ccc(C)cc3C3CN(C)CCC32)cc1 (configuration not stated): 238
C[C@]12CCC(=O)C[C@@H]1CC[C@@H]1[C@@H]2CC[C@]2(C)C=CC[C@@H]12: 201
CCOc1ccccc1OCCOc1ccc(F)cc1: 193
CN=C1c2cc3cc(OC)ccc3n2CCN1C: 177
Cc1c(CCOC(=O)CC23CC4CC(CC(C)(C4)C2)C3)sc[n+]1Cc1ccc([N+](=O)[O-])cc1: 208
COc1cc2c(cc1OC)C1(CCCCC1)CN(C)C2: 258
COc1ccc(Cl)cc1C(=O)NCCc1ccc(S(=O)(=O)NC(=O)NC2CCCCC2)cc1: 155
CC1(C)NC(C(=O)O)Cc2c1[nH]c1ccccc21 (configuration not stated): 175
CCOC(=O)[C@H](CCc1ccccc1)N[C@@H](C)C(=O)N1CCC[C@H]1C(=O)O: 171
COc1ccc(CCNC(=O)C(=O)Nc2ccc3c(c2)OCO3)cc1OC: 220
Cc1oc(/C=N/NC(=O)CC2(C)OCCO2)cc1Br: 93.4
CCC(=O)Oc1ccc(/C(CC)=C(\CC)c2ccc(OC(=O)CC)cc2)cc1: 174
O=C(NCCN1CCCCC1)c1c(O)c2ccccc2[nH]c1=O: 38
O=C(NCCc1cccc(F)c1)[C@@H]1CSC2c3ccccc3C(=O)N21 (some centres not stated): 251
COc1cc2cc(C(=O)O)n(C)c2c(OC)c1OC: 184
Cc1ccc2[nH]c3c(c2c1)CN(C(=O)CN1CCSCC1)CC3: 66.8
CN1C(=O)C(O)(CC(=O)/C=C/C=C/c2ccccc2)c2ccccc21 (configuration not stated): 153
NC(=O)OCC(COC(N)=O)c1ccccc1: 160
CC(=O)c1c(C)[nH]c(C(=O)OCc2ccccc2)c1C: 120
O=C(CCCC(=O)OCC1CCCO1)OCC1CCCO1 (configuration not stated): 131
CC1(C)CC(CC(=O)Nc2nccs2)(c2ccccc2)CCO1 (configuration not stated): 182
CC(C)Cc1cc(C(=O)N2CCC(N3CCC(C(=O)N4CCCC4)CC3)CC2)n[nH]1: 191
C#CCN1C(=O)C(O)(CC(=O)c2ccc(OC)c(OC)c2)c2ccccc21 (configuration not stated): 315
O=C(c1ccc(-c2ccccc2)c(F)c1)C1CCCN(C(=O)c2cncs2)C1 (configuration not stated): 157
COc1ccc(/C=N\NC(=O)CCc2c(C)n[nH]c2C)c(OC)c1OC: 151
CCc1cccc(OC2OC(CO)C(O)C(O)C2NC(C)=O)c1 (configuration not stated): 308
CCc1cccc2c1NC1(CCCC1)CC2C (configuration not stated): 185
CN1CCc2cccc3c2[C@H]1Cc1ccc(O)c(O)c1-3: 187
OC(CCN1CCCCC1)(c1ccccc1)C1CCCCC1 (configuration not stated): 185
C#CCN(C)CCCOc1ccc(Cl)cc1Cl: 64.3
CCOC(=O)C1(CCCc2ccccc2)CCN(C2CCN(C(C)=O)CC2)CC1: 138
CNC[C@H](O)c1ccc(O)c(O)c1: 162
COC(=O)c1ccc(COc2ccc3c(C)c(C)c(=O)oc3c2C)o1: 157
O=[N+]([O-])c1cc(/C=N/n2cnnc2)ccc1N1CCCC1: 182
CC1(C)OC2OC(C(=O)N/N=C/c3ccccc3F)C3OC(C)(C)OC3C2O1 (configuration not stated): 164
CC(C)CC(=O)N(Cc1ccc(F)cc1)C1CCS(=O)(=O)C1 (configuration not stated): 204
O=C(Nc1cccc(Cl)c1)N1CCN2C(=O)c3ccccc3C12c1ccccc1 (configuration not stated): 153
CCOC(=O)c1cccc(C(=O)OCC)n1: 28.3
CCc1cc2c3c(c(=O)oc2cc1O)CCCC3: 257
CC(O)Cn1cnc2c1c(=O)n(C)c(=O)n2C (configuration not stated): 150
C/C(=N\N=C1\NC(=O)C(CC(=O)Nc2ccc(Cl)cc2)S1)c1ccco1 (configuration not stated): 112
Cc1ccc(NCCC(=O)c2ccccc2)cc1Cl: 171
O=c1ccc2ccccc2o1: 162
O=C(COc1ccccc1)N1CCN(c2ccccc2)CC1: 176
C/C(NC(=O)c1cccs1)=C1\C(=O)C[C@@H]2[C@H]1C2(C)C: 193
